# Assay protocol: orientative acute toxicity after single oral administration to mice
# Condition details: mouse, in vivo, assessed on the seventh day
Test readout: LD50 at 168 h

I would be grateful if you could share the reported LD50 at 168 h for CCOC(=O)C1=C(C)NC(C)=C(C(=O)OCC)C1c1cccc(-n2ccnc2)c1 [FCE 24265] . > 800 mg/kg
